The origin of these recorded values is ChEMBL document CHEMBL4261653.

experiment: Oral bioavailability in rat; format: ADME, organism-based; settings: in vivo
READOUT LABEL: bioavailability (%)
// note: answer is a bare numeric in %

>  <COMPOUND>
CCc1ccc(C(=O)COc2ccc(CC3SC(=O)NC3=O)cc2)nc1 (configuration not stated)

>  <READOUT LABEL>
bioavailability

>  <OBSERVED VALUE>
73

$$$$

Now turn to the next compound.
Ask | What bioavailability value was documented for this compound, COc1cccc(C(=O)COc2ccc(CC3SC(=O)NC3=O)cc2)c1 (configuration not stated) ?
Reply | 100
